# measurement_target: Methyl-CpG-binding domain protein 4 (Homo sapiens);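 note: MBD4 activity read as fluorescence at 594 nm from cleavage and release of a quenched duplex DNA oligonucleotide, with APE1 coupled to incise the strand and raise turnover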
# measurement_conditions: Compound Concentration 10.0 uM, Hit No
# Description: Inhibition of MBD4 by quantifying inhibition of MBD4-mediated cleavage and dissociation of quenched duplex DNA oligonucleotides, measured as fluorescence at 594 nm. To generate a functional strand incision and increase turn-over this assay is coupled to APE1.
Measured inhibition of individual entries
Please give a number only; it is taken to be in %.

> print(dat)
                                   compound  assay.endpoint  value
1  COc1ccc(CC(=O)NC(N/C(=N/C#N)Nc2cccc3ncccc23)C(C)(C)C)cc1OC (stereo unspecified)      inhibition  -7.77
2  NC1(c2ccc(-c3nc4c(O)ccnn4c3-c3ccccc3)cc2)CCC1      inhibition     29
3  CC1(C)CCC(C)(C)c2cc(C(=O)Nc3ccc(C(=O)O)cc3)ccc21      inhibition   58.8

Exercise: Could you share which inhibition value was measured for CC(C)NCC(O)COc1ccc(CCOCC2CC2)cc1 (stereo unspecified) ?
Key: 4.74

Exercise: Could you share which inhibition value was measured for "CCC(=N\O)/C(C)=C/c1ccc(F)c(C)c1" ?
Key: 64.7
